target: human glucagon-like peptide 1 receptor (GLP-1R) (human, UniProt P43220); assay: cell-based or functional assay
Numbered stars: 1 amine (or outer) side, 2 acyl side, 3 side chain; on linkers, the order of the positions; unused ones are H or OH. Square brackets hold non-standard residues; d marks the D form. Side chains are listed from the residue outwards. * marks the point of attachment. C20 diacid = O=C(O)CCCCCCCCCCCCCCCCCCC(=O)*; C18 diacid = O=C(O)CCCCCCCCCCCCCCCCC(=O)*; γGlu = O=C(O)[C@H](CCC(=O)[*:2])N[*:1]; KEK = Lys-Glu-Lys peptide sequence; AEEA = NCCOCCOCC(=O)O; Aib = CC(C)(N)C(=O)O
reported-property: EC50 GLP-1 (nM), cAMP AlphaScreen

>>> experimental_result("H-H[Aib]EGTFTSELATILDEQAAK([AEEA-KEK-γGlu-C20 diacid])DFIAWLIEHKITD-OH [Compound 65]")
0.13
>>> experimental_result("H-H[Aib]EGTFSSELATILDK([AEEA-KEK-γGlu-C20 diacid])QAARDFIAWLIQHKITD-OH [Compound 48]")
0.47
>>> experimental_result("H-H[Aib]EGSFTSELATILDEQAAK([AEEA-AEEA-γGlu-C20 diacid])DFIAWLIEHKITD-OH [Compound 45]")
1.4
>>> experimental_result("H-H[Aib]EGSFTSELATILDEQAAK([AEEA-KEK-γGlu-C20 diacid])DFIAWLIEHKITD-OH [Compound 64]")
0.49
>>> experimental_result("H-H[Aib]EGTFSSELATILDK([AEEA-KEK-γGlu-C18 diacid])QAARDFIAWLIEHKITD-OH [Compound 49]")
0.27
>>> experimental_result("H-H[Aib]EGTFTSEK([AEEA-KEK-γGlu-C20 diacid])ATILDEQAARDFIAWLIEHKITD-OH [Compound 54]")
0.034
>>> experimental_result("H-H[Aib]EGSFTSELATILDAK([AEEA-KEK-γGlu-C20 diacid])AARDFIAWLIEHKITD-OH [Compound 62]")
0.27
>>> experimental_result("H-H[Aib]EGSFTSELATILDK([AEEA-KEK-γGlu-C20 diacid])QAARDFIAWLIAHKITD-OH [Compound 58]")
0.089
>>> experimental_result("H-H[Aib]EGSFTSELATILDEQAAK([AEEA-AEEA-KEK-γGlu-C20 diacid])DFIAWLIEHKITD-OH [Compound 66]")
0.65
>>> experimental_result("H-H[Aib]EGSFTSELATILDK([AEEA-AEEA-KEK-γGlu-C20 diacid])QAARDFIAWLIEHKITD-OH [Compound 60]")
0.097
>>> experimental_result("H-H[Aib]EGSFTSELATILDK([AEEA-KEK-γGlu-C20 diacid])QAARDFIAWLIEHKITD-OH [Compound 57]")
0.093
>>> experimental_result("H-H[Aib]EGTFSSELATILDK([AEEA-KEK-γGlu-C20 diacid])QAARDFIAWLIEHKITD-OH [Compound 50]")
0.31
>>> experimental_result("H-H[Aib]EGTFTSELATILDK([γGlu-C18 diacid])KAARDFIAWLIEHKITD-OH [Compound 6]")
0.058
>>> experimental_result("H-H[Aib]EGSFTSELATILDK([AEEA-KEK-γGlu-C20 diacid])KAARDFIAWLIEHKITD-OH [Compound 59]")
0.088
>>> experimental_result("H-H[Aib]EGTFTSELATILDK([AEEA-KEK-γGlu-C20 diacid])QAARDFIAWLIEHKITD-OH [Compound 56]")
0.033
>>> experimental_result("H-H[Aib]EGSFTSELATILDAK([AEEA-AEEA-KEK-γGlu-C20 diacid])AARDFIAWLIEHKITD-OH [Compound 63]")
0.31
>>> experimental_result("H-H[Aib]EGTFTSELATILDEQAAK([AEEA-AEEA-KEK-γGlu-C20 diacid])DFIAWLIEHKITD-OH [Compound 67]")
0.16
>>> experimental_result("H-H[Aib]EGSFTSEK([AEEA-AEEA-KEK-γGlu-C20 diacid])ATILDEQAARDFIAWLIEHKITD-OH [Compound 55]")
0.11
>>> experimental_result("H-H[Aib]EGTFTSELATILDK([AEEA-KEK-γGlu-C20 diacid])QAARDFIAWLIQHKITD-OH [Compound 52]")
0.02
>>> experimental_result("H-H[Aib]EGTFSSELATILDK([AEEA-KEK-γGlu-C18 diacid])QAARDFIAWLIQHKITD-OH [Compound 47]")
0.44
